List of estimated IC50, HEK293 ST2 NFkB values.
target: T1, human IL-33 (mm2) (human, UniProt O95760 112-270)
T1 chain: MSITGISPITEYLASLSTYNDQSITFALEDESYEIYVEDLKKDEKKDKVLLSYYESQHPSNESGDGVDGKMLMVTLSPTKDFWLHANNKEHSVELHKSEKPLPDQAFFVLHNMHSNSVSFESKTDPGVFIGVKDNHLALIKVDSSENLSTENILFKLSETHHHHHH
method: cell-based or functional assay
Answer as a quantity: numeral, then unit.

binder	estimated IC50, HEK293 ST2 NFkB
9B3-31v2 (antibody, human IgG1, kappa, V domains shown) VH: EVQLVETGGGLVQPGRSLKLSCVASGFTFSNYWMYWIRQAPGMGLEWVSSINNDGGNTYYLDSVKGRFTISRNNAENTVYLQMNSLRSEDTATYYCAKGHYYYSSYSFAFWGQGTLVTVSS VL: DIQMTQSPSVLSASVGDRVTLSCKASHNINKHLDWYQQKVGEAPKLLIYFTNNLQTGIPSRFSGSGSGTDYTLTISSLQPEDVATYFCFQYNSGWTFGQGTKVEIKR	0.202 nM

# evaluate next
What measured estimated IC50, HEK293 ST2 NFkB goes with 9B3-7 (antibody, human IgG1, kappa, V domains shown) VH: EVQLVETGGGLVQPGRSLKLSCVASGFTFSNYWMYWIRQAPGMGLEWVSSINNDGGNTYYLDSVKGRFTISRNNAENTVYLQMNSLRSEDTATYYCAKGRYYYSSYSFAYWGQGTLVTVSS VL: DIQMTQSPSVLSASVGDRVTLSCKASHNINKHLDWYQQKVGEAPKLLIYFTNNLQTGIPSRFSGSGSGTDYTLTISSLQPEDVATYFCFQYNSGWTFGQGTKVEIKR ?
0.069 nM

Each recorded value in this set is attributed to patent US20180037644A1.
